Reported pIC50 values are given for each entry in this list.
target: cyclin D1/cdk 4 enzyme (Homo sapiens, UniProt P11802); construct: made in house; host or cells: Sf9 insect cells, recombinant baculovirus; assay: CDK4 ELISA kinase assay (phospho-Rb ser 795 detection); format: biochemical; settings: In Vitro Enzyme Assays, 200 μM ATP, read-out: CDK4 IC50
Sequence (P11802 whole entry, species assumed): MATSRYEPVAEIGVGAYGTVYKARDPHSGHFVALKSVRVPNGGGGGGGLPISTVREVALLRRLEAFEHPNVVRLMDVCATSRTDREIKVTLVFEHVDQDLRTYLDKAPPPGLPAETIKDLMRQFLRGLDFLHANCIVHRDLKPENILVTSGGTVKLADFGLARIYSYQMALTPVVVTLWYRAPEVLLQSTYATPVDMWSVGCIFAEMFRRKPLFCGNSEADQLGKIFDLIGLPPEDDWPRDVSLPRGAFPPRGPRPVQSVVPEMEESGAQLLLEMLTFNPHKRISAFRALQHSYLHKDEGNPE
Sequence (P24385 whole entry partner, species assumed): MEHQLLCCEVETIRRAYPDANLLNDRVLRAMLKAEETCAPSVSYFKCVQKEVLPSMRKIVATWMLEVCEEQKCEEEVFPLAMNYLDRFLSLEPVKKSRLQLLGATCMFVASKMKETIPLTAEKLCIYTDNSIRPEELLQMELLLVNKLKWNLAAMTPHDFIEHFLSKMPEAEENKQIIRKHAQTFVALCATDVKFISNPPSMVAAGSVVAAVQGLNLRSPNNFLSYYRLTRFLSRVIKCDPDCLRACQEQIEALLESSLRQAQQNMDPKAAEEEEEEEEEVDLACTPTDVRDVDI
# log scale: pIC50 equals minus log10 of the concentration in mol/L

Nc1ccc(CN/C=C2\C(=O)NC(=O)c3ccc(I)cc32)cc1O [Example 122] ... 7.40
O=C(O)CCCN/C=C1\C(=O)NC(=O)c2ccc(-n3cccc3)cc21 [Example 315] ... 6.72

# context switch: different compound, same pIC50
What the record says about O=C1NC(=O)c2ccc(Br)cc2/C1=C/Nc1ccc(CN2CCC(O)CC2)cc1 [compound 75] : pIC50 is 6.54
